FYI, the data here is from ChEMBL document CHEMBL4325889.

system: U-251; experiment: Growth inhibition of human U251 cells at 10 uM after 48 hrs by SRB assay relative to control; format: functional; conditions: U-251, 48 h, read-out: GI
Would you mind classing the entries by inhibition of growth at 10 µM? Ranges: lo (below 10%), med (10% to below 30%), hi (30% or more)

## Input Note: place this molecule into its band. Item: COc1ccc(C(=O)Nc2cccc(-c3cc(=O)c4c(O)c(OC)c(OC)cc4o3)c2)cc1
## Output med

## Input Note: place this molecule into its band. Item: COc1ccccc1NC(=O)c1cccc(-c2cc(=O)c3c(O)c(OC)c(OC)cc3o2)c1
## Output lo

## Input Note: place this molecule into its band. Item: COc1ccc(NC(=O)c2cccc(-c3cc(=O)c4c(O)c(OC)c(OC)cc4o3)c2)cc1
## Output med

## Input Note: place this molecule into its band. Item: COc1cccc(NC(=O)c2cccc(-c3cc(=O)c4c(O)c(OC)c(OC)cc4o3)c2)c1
## Output med

## Input Note: place this molecule into its band. Item: COc1ccccc1C(=O)Nc1cccc(-c2cc(=O)c3c(O)c(OC)c(OC)cc3o2)c1
## Output hi

## Input Note: place this molecule into its band. Item: COc1cc2oc(-c3cccc(NC(=O)c4ccc5c(c4)OCO5)c3)cc(=O)c2c(O)c1OC
## Output med

## Input Note: place this molecule into its band. Item: COc1cc2oc(-c3cccc(C(=O)Nc4ccc5c(c4)OCO5)c3)cc(=O)c2c(OC)c1OC
## Output lo

## Input Note: place this molecule into its band. Item: Cc1ccc(NC(=O)c2ccc(CN3CCN(C)CC3)cc2)cc1Nc1nccc(-c2cccnc2)n1
## Output med

## Input Note: place this molecule into its band. Item: COc1cc(NC(=O)c2cccc(-c3cc(=O)c4c(O)c(OC)c(OC)cc4o3)c2)cc(OC)c1OC
## Output hi

---

tested on: SK-MEL-5; experiment: Growth inhibition of human SK-MEL-5 cells at 10 uM after 48 hrs by SRB assay relative to control; format: functional; settings: SK-MEL-5, 48 h, read-out: GI
Could you please report measured inhibition of growth at 10 µM for the items listed next?
Report as a plain number; the unit % is understood.

## Input If you can, please state the reported inhibition of growth at 10 µM value of COc1ccc(NC(=O)c2cccc(-c3cc(=O)c4c(O)c(OC)c(OC)cc4o3)c2)cc1 .
## Output 8.61

## Input If you can, please state the reported inhibition of growth at 10 µM value of Cc1ccc(NC(=O)c2ccc(CN3CCN(C)CC3)cc2)cc1Nc1nccc(-c2cccnc2)n1 .
## Output 22.3

## Input If you can, please state the reported inhibition of growth at 10 µM value of COc1cc2oc(-c3cccc(NC(=O)c4ccc5c(c4)OCO5)c3)cc(=O)c2c(O)c1OC .
## Output 25.9

## Input If you can, please state the reported inhibition of growth at 10 µM value of COc1ccccc1C(=O)Nc1cccc(-c2cc(=O)c3c(O)c(OC)c(OC)cc3o2)c1 .
## Output 13.4

## Input If you can, please state the reported inhibition of growth at 10 µM value of COc1cc2oc(-c3cccc(C(=O)Nc4ccc5c(c4)OCO5)c3)cc(=O)c2c(OC)c1OC .
## Output 47.2

## Input If you can, please state the reported inhibition of growth at 10 µM value of COc1ccccc1NC(=O)c1cccc(-c2cc(=O)c3c(O)c(OC)c(OC)cc3o2)c1 .
## Output 3.77

## Input If you can, please state the reported inhibition of growth at 10 µM value of COc1cc(NC(=O)c2cccc(-c3cc(=O)c4c(OC)c(OC)c(OC)cc4o3)c2)cc(OC)c1OC .
## Output 91.7

## Input If you can, please state the reported inhibition of growth at 10 µM value of COc1ccc(C(=O)Nc2cccc(-c3cc(=O)c4c(O)c(OC)c(OC)cc4o3)c2)cc1 .
## Output 16.2

## Input If you can, please state the reported inhibition of growth at 10 µM value of COc1cccc(NC(=O)c2cccc(-c3cc(=O)c4c(OC)c(OC)c(OC)cc4o3)c2)c1 .
## Output 36.1

## Input If you can, please state the reported inhibition of growth at 10 µM value of COc1cccc(NC(=O)c2cccc(-c3cc(=O)c4c(O)c(OC)c(OC)cc4o3)c2)c1 .
## Output 26.8

## Input If you can, please state the reported inhibition of growth at 10 µM value of COc1ccc(NC(=O)c2cccc(-c3cc(=O)c4c(OC)c(OC)c(OC)cc4o3)c2)cc1 .
## Output 59.1

## Input If you can, please state the reported inhibition of growth at 10 µM value of COc1cc2oc(-c3cccc(C(=O)Nc4ccccc4)c3)cc(=O)c2c(O)c1OC .
## Output 28.3

## Input If you can, please state the reported inhibition of growth at 10 µM value of COc1cc2oc(-c3cccc(NC(=O)c4ccc5c(c4)OCO5)c3)cc(=O)c2c(OC)c1OC .
## Output 83.6

## Input If you can, please state the reported inhibition of growth at 10 µM value of COc1cc(NC(=O)c2cccc(-c3cc(=O)c4c(O)c(OC)c(OC)cc4o3)c2)cc(OC)c1OC .
## Output 60.8

## Input If you can, please state the reported inhibition of growth at 10 µM value of COc1cc2oc(-c3cccc(NC(=O)c4ccccc4)c3)cc(=O)c2c(OC)c1OC .
## Output 36.8

## Input If you can, please state the reported inhibition of growth at 10 µM value of COc1ccccc1NC(=O)c1cccc(-c2cc(=O)c3c(OC)c(OC)c(OC)cc3o2)c1 .
## Output 58.4

## Input If you can, please state the reported inhibition of growth at 10 µM value of COc1ccc(C(=O)Nc2cccc(-c3cc(=O)c4c(OC)c(OC)c(OC)cc4o3)c2)cc1 .
## Output 49.8

---

system: HCT-116; test: Growth inhibition of human HCT116 cells at 10 uM after 48 hrs by SRB assay relative to control; format: functional; settings: HCT-116, 48 h, read-out: GI
assay_endpoint: inhibition of growth at 10 µM (%)
Report as a plain number; the unit % is understood.

## Input What reported inhibition of growth at 10 µM corresponds to COc1ccc(C(=O)Nc2cccc(-c3cc(=O)c4c(O)c(OC)c(OC)cc4o3)c2)cc1 on HCT-116?
## Output 30.2

## Input What reported inhibition of growth at 10 µM corresponds to COc1cc(NC(=O)c2cccc(-c3cc(=O)c4c(OC)c(OC)c(OC)cc4o3)c2)cc(OC)c1OC on HCT-116?
## Output 51.4

## Input What reported inhibition of growth at 10 µM corresponds to COc1cc2oc(-c3cccc(C(=O)Nc4ccccc4)c3)cc(=O)c2c(OC)c1OC on HCT-116?
## Output 18.3

## Input What reported inhibition of growth at 10 µM corresponds to COc1ccccc1NC(=O)c1cccc(-c2cc(=O)c3c(O)c(OC)c(OC)cc3o2)c1 on HCT-116?
## Output 14.5

## Input What reported inhibition of growth at 10 µM corresponds to COc1cc(NC(=O)c2cccc(-c3cc(=O)c4c(O)c(OC)c(OC)cc4o3)c2)cc(OC)c1OC on HCT-116?
## Output 55.2

## Input What reported inhibition of growth at 10 µM corresponds to COc1cccc(C(=O)Nc2cccc(-c3cc(=O)c4c(O)c(OC)c(OC)cc4o3)c2)c1 on HCT-116?
## Output 44.5

## Input What reported inhibition of growth at 10 µM corresponds to COc1cc2oc(-c3cccc(C(=O)Nc4ccccc4)c3)cc(=O)c2c(O)c1OC on HCT-116?
## Output 53.7

## Input What reported inhibition of growth at 10 µM corresponds to COc1cc2oc(-c3cccc(C(=O)Nc4ccc5c(c4)OCO5)c3)cc(=O)c2c(OC)c1OC on HCT-116?
## Output 27.3

---

test system: NCI/ADR-RES; assay: Growth inhibition of human NCI/ADR-RES cells at 10 uM after 48 hrs by SRB assay relative to control; assay type: functional; conditions: read-out: GI
Respond with MET for inhibition of growth at 10 µM values of 40% and above, NOT MET for values below.

## Input State whether the measured inhibition of growth at 10 µM reaches 40%, counting equality as reaching it, for COc1cccc(NC(=O)c2cccc(-c3cc(=O)c4c(OC)c(OC)c(OC)cc4o3)c2)c1
## Output NOT MET

## Input State whether the measured inhibition of growth at 10 µM reaches 40%, counting equality as reaching it, for COc1cc2oc(-c3cccc(C(=O)Nc4ccc5c(c4)OCO5)c3)cc(=O)c2c(O)c1OC
## Output NOT MET

## Input State whether the measured inhibition of growth at 10 µM reaches 40%, counting equality as reaching it, for COc1ccc(NC(=O)c2cccc(-c3cc(=O)c4c(OC)c(OC)c(OC)cc4o3)c2)cc1
## Output MET

## Input State whether the measured inhibition of growth at 10 µM reaches 40%, counting equality as reaching it, for COc1cc2oc(-c3cccc(NC(=O)c4ccccc4)c3)cc(=O)c2c(OC)c1OC
## Output NOT MET

## Input State whether the measured inhibition of growth at 10 µM reaches 40%, counting equality as reaching it, for COc1cccc(C(=O)Nc2cccc(-c3cc(=O)c4c(O)c(OC)c(OC)cc4o3)c2)c1
## Output MET

## Input State whether the measured inhibition of growth at 10 µM reaches 40%, counting equality as reaching it, for COc1cc(NC(=O)c2cccc(-c3cc(=O)c4c(O)c(OC)c(OC)cc4o3)c2)cc(OC)c1OC
## Output MET

## Input State whether the measured inhibition of growth at 10 µM reaches 40%, counting equality as reaching it, for COc1ccccc1C(=O)Nc1cccc(-c2cc(=O)c3c(OC)c(OC)c(OC)cc3o2)c1
## Output MET

## Input State whether the measured inhibition of growth at 10 µM reaches 40%, counting equality as reaching it, for COc1cccc(C(=O)Nc2cccc(-c3cc(=O)c4c(OC)c(OC)c(OC)cc4o3)c2)c1
## Output NOT MET
